Molecular target: rat CB2 receptor (rCB2) (Rattus norvegicus, UniProt Q9QZN9)
Sequence (Q9QZN9 1-360): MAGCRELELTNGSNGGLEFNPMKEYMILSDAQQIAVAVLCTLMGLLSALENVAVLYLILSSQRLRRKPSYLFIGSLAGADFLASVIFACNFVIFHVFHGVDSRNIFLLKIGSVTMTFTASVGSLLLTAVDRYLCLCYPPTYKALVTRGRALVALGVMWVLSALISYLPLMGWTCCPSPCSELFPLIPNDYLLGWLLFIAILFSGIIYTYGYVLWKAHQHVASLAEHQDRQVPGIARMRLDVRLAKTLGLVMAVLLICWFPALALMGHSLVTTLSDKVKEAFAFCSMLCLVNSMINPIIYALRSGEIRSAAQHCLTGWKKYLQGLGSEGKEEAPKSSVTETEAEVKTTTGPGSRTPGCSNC
Test: cell-based
Format: cell-based
Conditions: agonist or inverse agonist at rCB2
Counter-ions that a name gives are not always drawn.
Parameter Measured: +/− RCB2

A selection of reference data follows.
Look up +/− RCB2: CN1CCCn2c(-c3ccccc3)nc(C(=O)N[C@H](C(N)=O)C(C)(C)C)c2C1
+

Ok, now CNC(=O)[C@@H](NC(=O)c1nc(-c2ccccc2Cl)n2c1CNCC2)C(C)(C)C
+

Next compound: CC(C)(C)OC(=O)N1CCn2c(-c3ccc(Cl)cc3)nc(C(=O)N[C@H](CO)C(C)(C)C)c2C1
−

CN1CCCn2c(-c3cc(F)c(F)cc3F)nc(C(=O)N[C@H](C(N)=O)C(C)(C)C)c2C1 , same question.
+

One more compound: CNC(=O)[C@H](CC(C)C)NC(=O)c1nc(-c2ccc(F)c(F)c2)n2c1CN(C)CC2
+

Others:
Could you share which +/− RCB2 value was measured for CCN1CCn2c(-c3ccccc3)nc(C(=O)N[C@@H](C)c3ccccc3)c2C1 ?
−

Repeat for the following compound: CC12CCC(C1)C(C)(C)C2NC(=O)c1nc(-c2ccccc2)n2c1CNCC2 (centres unmarked) [Compound 39, HCl]
+

And what about the compound CNC(=O)[C@@H](NC(=O)c1nc(/C=C/C2CC2)n2c1CN(C)CCC2)C(C)(C)C ?
+
